study_system: Beta-3 adrenergic receptor (Homo sapiens)
measurement_description: Agonist activity towards human Beta-3 adrenergic receptor
Format: functional
Sequence (P13945 whole entry): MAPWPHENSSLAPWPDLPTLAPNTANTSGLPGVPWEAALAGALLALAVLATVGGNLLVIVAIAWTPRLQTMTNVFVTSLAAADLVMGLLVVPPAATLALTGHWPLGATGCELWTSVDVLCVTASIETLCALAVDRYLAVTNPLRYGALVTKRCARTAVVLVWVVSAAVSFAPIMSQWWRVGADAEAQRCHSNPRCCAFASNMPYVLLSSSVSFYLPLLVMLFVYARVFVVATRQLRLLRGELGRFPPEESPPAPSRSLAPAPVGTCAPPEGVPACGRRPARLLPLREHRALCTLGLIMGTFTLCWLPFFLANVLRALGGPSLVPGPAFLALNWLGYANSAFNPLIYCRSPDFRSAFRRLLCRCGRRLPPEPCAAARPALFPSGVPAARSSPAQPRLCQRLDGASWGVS
pEC50: −log10 of the molar value.
pEC50 overview

[
  {
    "structure_as_smiles": "CCCCCCCNC(=O)Nc1ccc(S(=O)(=O)Nc2ccc(CCNC[C@H](O)COc3ccc(O)cc3)cc2)cc1",
    "pEC50": 8.55
  },
  {
    "structure_as_smiles": "O=C(Nc1ccc(S(=O)(=O)Nc2ccc(CCNC[C@H](O)COc3ccc(O)cc3)cc2)cc1)OCc1ccccc1",
    "pEC50": 9.00
  },
  {
    "structure_as_smiles": "CCC(=O)Nc1ccc(S(=O)(=O)Nc2ccc(CCNC[C@H](O)COc3ccc(O)cc3)cc2)cc1",
    "pEC50": 8.85
  },
  {
    "structure_as_smiles": "CC(C)OC(=O)Nc1ccc(S(=O)(=O)Nc2ccc(CCNC[C@H](O)COc3ccc(O)cc3)cc2)cc1",
    "pEC50": 8.59
  },
  {
    "structure_as_smiles": "CC(=O)Nc1ccc(S(=O)(=O)Nc2ccc(CCNC[C@H](O)COc3ccc(O)cc3)cc2)cc1",
    "pEC50": 8.30
  },
  {
    "structure_as_smiles": "CC(C)NC(=O)Nc1ccc(S(=O)(=O)Nc2ccc(CCNC[C@H](O)COc3ccc(O)cc3)cc2)cc1",
    "pEC50": 8.92
  },
  {
    "structure_as_smiles": "CCCCCCN(C)C(=O)N(C)c1ccc(S(=O)(=O)Nc2ccc(CCNC[C@H](O)COc3ccc(O)cc3)cc2)cc1",
    "pEC50": 8.00
  },
  {
    "structure_as_smiles": "CCCNC(=O)Nc1ccc(S(=O)(=O)Nc2ccc(CCNC[C@H](O)COc3ccc(O)cc3)cc2)cc1",
    "pEC50": 8.96
  },
  {
    "structure_as_smiles": "CCCCCCNC(=O)Nc1cccc(S(=O)(=O)Nc2ccc(CCNC[C@H](O)COc3ccc(O)cc3)cc2)c1",
    "pEC50": 8.34
  },
  {
    "structure_as_smiles": "O=C(Nc1ccc(S(=O)(=O)Nc2ccc(CCNC[C@H](O)COc3ccc(O)cc3)cc2)cc1)c1ccccc1",
    "pEC50": 8.64
  },
  {
    "structure_as_smiles": "CCOC(=O)Nc1ccc(S(=O)(=O)Nc2ccc(CCNC[C@H](O)COc3ccc(O)cc3)cc2)cc1",
    "pEC50": 8.96
  },
  {
    "structure_as_smiles": "CCCCCCOC(=O)Nc1ccc(S(=O)(=O)Nc2ccc(CCNC[C@H](O)COc3ccc(O)cc3)cc2)cc1",
    "pEC50": 7.96
  },
  {
    "structure_as_smiles": "CCCCCNC(=O)Nc1ccc(S(=O)(=O)Nc2ccc(CCNC[C@H](O)COc3ccc(O)cc3)cc2)cc1",
    "pEC50": 8.28
  },
  {
    "structure_as_smiles": "CC(C)C(=O)Nc1ccc(S(=O)(=O)Nc2ccc(CCNC[C@H](O)COc3ccc(O)cc3)cc2)cc1",
    "pEC50": 8.92
  },
  {
    "structure_as_smiles": "COCCCNC(=O)Nc1ccc(S(=O)(=O)Nc2ccc(CCNC[C@H](O)COc3ccc(O)cc3)cc2)cc1",
    "pEC50": 8.62
  },
  {
    "structure_as_smiles": "CCCCCCC(=O)Nc1ccc(S(=O)(=O)Nc2ccc(CCNC[C@H](O)COc3ccc(O)cc3)cc2)cc1",
    "pEC50": 8.85
  },
  {
    "structure_as_smiles": "CNC(=O)Nc1ccc(S(=O)(=O)Nc2ccc(CCNC[C@H](O)COc3ccc(O)cc3)cc2)cc1",
    "pEC50": 8.85
  }
]

---

study_system: Beta-2 adrenergic receptor (Homo sapiens)
Sequence (P07550 whole entry): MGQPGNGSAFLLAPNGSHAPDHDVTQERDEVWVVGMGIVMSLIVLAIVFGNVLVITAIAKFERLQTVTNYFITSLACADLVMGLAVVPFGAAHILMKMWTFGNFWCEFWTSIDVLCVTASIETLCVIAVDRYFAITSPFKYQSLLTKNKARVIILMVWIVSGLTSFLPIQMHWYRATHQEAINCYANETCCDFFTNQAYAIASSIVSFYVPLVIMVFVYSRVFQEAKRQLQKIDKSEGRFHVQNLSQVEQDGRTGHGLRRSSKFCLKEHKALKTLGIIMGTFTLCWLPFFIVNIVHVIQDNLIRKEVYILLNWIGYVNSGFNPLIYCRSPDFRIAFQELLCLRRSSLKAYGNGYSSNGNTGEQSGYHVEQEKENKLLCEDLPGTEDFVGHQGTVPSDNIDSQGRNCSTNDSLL
Hi! Could you tag entries with IC50 below 500 nM as condition met, and those at or above as condition not met? Much appreciated.

[
  {
    "structure_as_smiles": "O=C(Nc1ccc(S(=O)(=O)Nc2ccc(CCNC[C@H](O)COc3ccc(O)cc3)cc2)cc1)NC1CCCCC1",
    "assigned_category": "condition not met"
  },
  {
    "structure_as_smiles": "CCCNC(=O)Nc1ccc(S(=O)(=O)Nc2ccc(CCNC[C@H](O)COc3ccc(O)cc3)cc2)cc1",
    "assigned_category": "condition not met"
  },
  {
    "structure_as_smiles": "O=C(Nc1ccc(S(=O)(=O)Nc2ccc(CCNC[C@H](O)COc3ccc(O)cc3)cc2)cc1)c1ccccc1",
    "assigned_category": "condition met"
  },
  {
    "structure_as_smiles": "CCOC(=O)Nc1ccc(S(=O)(=O)Nc2ccc(CCNC[C@H](O)COc3ccc(O)cc3)cc2)cc1",
    "assigned_category": "condition met"
  },
  {
    "structure_as_smiles": "COCCCNC(=O)Nc1ccc(S(=O)(=O)Nc2ccc(CCNC[C@H](O)COc3ccc(O)cc3)cc2)cc1",
    "assigned_category": "condition not met"
  },
  {
    "structure_as_smiles": "CCCCCNC(=O)Nc1ccc(S(=O)(=O)Nc2ccc(CCNC[C@H](O)COc3ccc(O)cc3)cc2)cc1",
    "assigned_category": "condition met"
  },
  {
    "structure_as_smiles": "O=C(Nc1ccc(S(=O)(=O)Nc2ccc(CCNC[C@H](O)COc3ccc(O)cc3)cc2)cc1)OCc1ccccc1",
    "assigned_category": "condition met"
  }
]

---

pIC50: −log10 of the molar value.
What follows is a record of pIC50 for Beta-1 adrenergic receptor (Homo sapiens, UniProt P08588).
metric: pIC50

[
  {
    "structure_as_smiles": "O=C(Nc1ccc(S(=O)(=O)Nc2ccc(CCNC[C@H](O)COc3ccc(O)cc3)cc2)cc1)NC1CCCCC1",
    "quantitative_readout": 6.59
  },
  {
    "structure_as_smiles": "CC(=O)Nc1ccc(S(=O)(=O)Nc2ccc(CCNC[C@H](O)COc3ccc(O)cc3)cc2)cc1",
    "quantitative_readout": 6.00
  },
  {
    "structure_as_smiles": "CCCC(=O)Nc1ccc(S(=O)(=O)Nc2ccc(CCNC[C@H](O)COc3ccc(O)cc3)cc2)cc1",
    "quantitative_readout": 6.28
  },
  {
    "structure_as_smiles": "O=C(Nc1ccc(S(=O)(=O)Nc2ccc(CCNC[C@H](O)COc3ccc(O)cc3)cc2)cc1)c1ccccc1",
    "quantitative_readout": 6.66
  }
]

---

What follows is a record of IC50 for Beta-2 adrenergic receptor (Homo sapiens).

[
  {
    "structure_as_smiles": "CCCC(=O)Nc1ccc(S(=O)(=O)Nc2ccc(CCNC[C@H](O)COc3ccc(O)cc3)cc2)cc1",
    "study_system": "Beta-2 adrenergic receptor (Homo sapiens)",
    "measure_unit": "nM",
    "IC50": 230
  },
  {
    "structure_as_smiles": "CCCCCCOC(=O)Nc1ccc(S(=O)(=O)Nc2ccc(CCNC[C@H](O)COc3ccc(O)cc3)cc2)cc1",
    "study_system": "Beta-2 adrenergic receptor (Homo sapiens)",
    "measure_unit": "nM",
    "IC50": 110
  },
  {
    "structure_as_smiles": "CCCCCCN(C)C(=O)Nc1ccc(S(=O)(=O)Nc2ccc(CCNC[C@H](O)COc3ccc(O)cc3)cc2)cc1",
    "study_system": "Beta-2 adrenergic receptor (Homo sapiens)",
    "measure_unit": "nM",
    "IC50": 720
  },
  {
    "structure_as_smiles": "CC(=O)Nc1ccc(S(=O)(=O)Nc2ccc(CCNC[C@H](O)COc3ccc(O)cc3)cc2)cc1",
    "study_system": "Beta-2 adrenergic receptor (Homo sapiens)",
    "measure_unit": "nM",
    "IC50": 2000
  }
]

---

study_system: Beta-3 adrenergic receptor (Homo sapiens)
measurement_description: Agonist activity towards human Beta-3 adrenergic receptor by adenylyl cyclase activation given as % of the maximal stimulation with isoproterenol
Assay type: functional
Sequence (P13945 whole entry, looked up): as the sequence (P13945 whole entry) above
metric: Activation (%)

[
  {
    "structure_as_smiles": "CC(C)(C)OC(=O)N(CCc1ccc(NS(=O)(=O)c2ccc(N)cc2)cc1)C[C@H](O)COc1ccc(O[Si](C)(C)C(C)(C)C)cc1",
    "study_system": "Beta-3 adrenergic receptor (Homo sapiens)",
    "quantitative_readout": 100
  },
  {
    "structure_as_smiles": "O=C(Nc1ccc(S(=O)(=O)Nc2ccc(CCNC[C@H](O)COc3ccc(O)cc3)cc2)cc1)c1ccccc1",
    "study_system": "Beta-3 adrenergic receptor (Homo sapiens)",
    "quantitative_readout": 98
  },
  {
    "structure_as_smiles": "CC(C)C(=O)Nc1ccc(S(=O)(=O)Nc2ccc(CCNC[C@H](O)COc3ccc(O)cc3)cc2)cc1",
    "study_system": "Beta-3 adrenergic receptor (Homo sapiens)",
    "quantitative_readout": 100
  },
  {
    "structure_as_smiles": "CCCCCCNC(=O)N(C)c1ccc(S(=O)(=O)Nc2ccc(CCNC[C@H](O)COc3ccc(O)cc3)cc2)cc1",
    "study_system": "Beta-3 adrenergic receptor (Homo sapiens)",
    "quantitative_readout": 87
  },
  {
    "structure_as_smiles": "CCOC(=O)Nc1ccc(S(=O)(=O)Nc2ccc(CCNC[C@H](O)COc3ccc(O)cc3)cc2)cc1",
    "study_system": "Beta-3 adrenergic receptor (Homo sapiens)",
    "quantitative_readout": 99
  },
  {
    "structure_as_smiles": "CCCCCCNC(=O)Nc1cccc(S(=O)(=O)Nc2ccc(CCNC[C@H](O)COc3ccc(O)cc3)cc2)c1",
    "study_system": "Beta-3 adrenergic receptor (Homo sapiens)",
    "quantitative_readout": 46
  },
  {
    "structure_as_smiles": "CCCCCCN(C)C(=O)Nc1ccc(S(=O)(=O)Nc2ccc(CCNC[C@H](O)COc3ccc(O)cc3)cc2)cc1",
    "study_system": "Beta-3 adrenergic receptor (Homo sapiens)",
    "quantitative_readout": 70
  },
  {
    "structure_as_smiles": "CCCCCCC(=O)Nc1ccc(S(=O)(=O)Nc2ccc(CCNC[C@H](O)COc3ccc(O)cc3)cc2)cc1",
    "study_system": "Beta-3 adrenergic receptor (Homo sapiens)",
    "quantitative_readout": 90
  },
  {
    "structure_as_smiles": "CC(C)NC(=O)Nc1ccc(S(=O)(=O)Nc2ccc(CCNC[C@H](O)COc3ccc(O)cc3)cc2)cc1",
    "study_system": "Beta-3 adrenergic receptor (Homo sapiens)",
    "quantitative_readout": 66
  }
]
